Molecular target: hROMK (hKir1.1) (Homo sapiens, UniProt P48048)
Experiment: Thallium Flux Assay (ROMK channel functional thallium flux, FLIPR-Tetra)
Conditions: HEK293 cells stably expressing hROMK (hKir1.1); 30 min compound incubation
Experimental: The following Thallium Flux Assay was performed on each of the final product compounds in the Examples. Cell Culture Conditions—HEK293 cells stably expressing hROMK (hKir1.1) were grown at 37° C. in a 10% CO2 humidified incubator in complete growth media: Dulbecco's Modified Eagle Medium supplemented with non-essential amino acids, Penicillin/Streptomycin/Glutamine, G418 and FBS. […] At FLIPR-Tetra 384: Add stimulant (Thallium/Potassium) solution to microplate and monitor fluorescence. […]
Recorded IC50 by entry

- Compound: "CC1CC2(CCN(C(C)(C)C(O)c3cnc(-n4cnnn4)cn3)CC2)C(=O)N1C1=CC(=O)OC1 (single isomer, unassigned) [Example 304]"
  IC50: "910 nM"
- Compound: "CC1=C(N2CCC3(CCN(C[C@@H](O)c4ncc(-n5cnnn5)nc4C)CC3)C2=O)COC1=O"
  IC50: "50 nM"
- Compound: "CC1=C(N2CCC3(CCN(C[C@@H](O)c4ccc(-n5cnnn5)cc4F)CC3)C2=O)COC1=O"
  IC50: "10 nM"
- Compound: "C[C@@H]1CC2(CCN(C[C@H](O)c3ccc(-n4cnnn4)nc3)CC2)C(=O)N1C1=CC(=O)OC1"
  IC50: "10 nM"
- Compound: "O=C1C=C(N2CCC3(CCN(C[C@H](O)c4ccc(-n5cnnn5)cc4F)CC3)C2=O)CO1"
  IC50: "20 nM"
- Compound: "Cc1nc(-n2cnnn2)ccc1[C@@H](O)CN1CCC2(CC1)CCN(C1=C(C3CC3)C(=O)OC1)C2=O"
  IC50: "40 nM"
- Compound: "CC1=C(N2CCC3(CCN(CCc4ccc(-n5cnnn5)nn4)CC3F)C2=O)COC1=O (single isomer, unassigned) [Example 265]"
  IC50: "10 nM"

###

Biological target: hROMK (hKir1.1) (Homo sapiens)
Sequence (P48048 1-391): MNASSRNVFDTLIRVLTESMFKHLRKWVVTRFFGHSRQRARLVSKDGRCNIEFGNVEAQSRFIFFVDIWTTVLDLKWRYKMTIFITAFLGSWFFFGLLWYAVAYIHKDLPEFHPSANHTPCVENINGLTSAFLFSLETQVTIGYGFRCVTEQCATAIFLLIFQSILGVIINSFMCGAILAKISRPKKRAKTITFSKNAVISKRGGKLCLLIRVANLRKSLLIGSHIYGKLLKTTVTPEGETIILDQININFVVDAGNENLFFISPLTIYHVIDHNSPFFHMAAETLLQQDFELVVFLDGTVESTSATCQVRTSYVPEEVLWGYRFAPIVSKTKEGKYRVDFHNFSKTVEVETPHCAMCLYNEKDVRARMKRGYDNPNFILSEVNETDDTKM
Experiment: Thallium Flux Assay (ROMK channel functional thallium flux, FLIPR-Tetra)
Conditions: HEK293 cells stably expressing hROMK (hKir1.1); 30 min compound incubation
API: label(entry) gives Y if the entry's IC50 is strictly smaller than 60 nM; on equality or larger values it gives N.

- Compound: "CC1=C(N2CCC3(CCN(C[C@@H](O)c4ccc(-n5cnnn5)c(C)n4)CC3)C2=O)COC1=O [Example 31]"
  Class name: "Y"
- Compound: "COc1nc(-n2cnnn2)ccc1[C@H](O)CN1CCC2(CC1)CCN(C1=C(C)C(=O)OC1)C2=O [Example 150]"
  Class name: "Y"
- Compound: "CC1=C(N2C(=O)C3(CCN(C[C@H](O)c4ccc(-n5cnnn5)cc4C)CC3)CC2C)COC1=O (single isomer, unassigned) [Example 139]"
  Class name: "Y"
- Compound: "CC1=C(N2CCC3(CCN(C[C@H](O)c4cccc(-n5cnnn5)c4)CC3)C2=O)COC1=O [Example 61]"
  Class name: "N"
- Compound: "CC1=C(N2CCC3(CCN(C[C@@H](O)c4cncc(-n5cnnn5)c4)CC3)C2=O)COC1=O [Example 132]"
  Class name: "N"
- Compound: "CC1=C(N2C(=O)C3(CCN(C[C@H](O)c4ccc(-n5cnnn5)nc4)CC3)CC2C)COC1=O (single isomer, unassigned) [Example 65]"
  Class name: "Y"
